- measured.on: 17-beta-hydroxysteroid dehydrogenase type 2 (Homo sapiens)
- Sequence (P37059 whole entry): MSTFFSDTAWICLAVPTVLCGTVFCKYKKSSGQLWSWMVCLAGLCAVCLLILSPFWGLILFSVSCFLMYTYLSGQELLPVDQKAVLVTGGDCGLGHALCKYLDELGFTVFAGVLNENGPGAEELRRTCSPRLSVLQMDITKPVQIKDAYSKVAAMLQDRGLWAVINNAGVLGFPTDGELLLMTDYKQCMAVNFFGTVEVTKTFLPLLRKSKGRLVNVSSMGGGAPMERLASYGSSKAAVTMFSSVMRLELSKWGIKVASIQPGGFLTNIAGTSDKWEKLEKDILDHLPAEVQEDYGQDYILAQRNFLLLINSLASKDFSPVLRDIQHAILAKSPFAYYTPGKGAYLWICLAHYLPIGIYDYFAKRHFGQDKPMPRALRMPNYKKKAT
pIC50: −log10 of the molar value.
Here, compounds appear alongside pIC50 reported for 17-beta-hydroxysteroid dehydrogenase type 2 (Homo sapiens) in the literature.
measurement.kind: pIC50

Look over these answered cases.
- COc1cccc([C@H](O)[C@H]2[C@@H](c3ccccc3)CC(=O)N2C)c1: 6.09
- Oc1cc(F)cc(-c2ccc(-c3ccc(O)c(F)c3)s2)c1: 6.64

(I) NS(=O)(=O)Oc1ccc(-c2ccc(C(=O)c3c(F)ccc(O)c3F)s2)cc1F
(II) COc1c(Cl)cc(-c2ccc(C(=O)c3cccc(O)c3)s2)cc1Cl
(III) CN1C(=O)C[C@H](c2ccccc2)[C@@H]1[C@@H](O)c1ccc(-c2ccc(F)cc2)cc1
(IV) O=C(/C=C/c1cc(-c2ccc(-c3cccc(O)c3)s2)ccc1O)Nc1ccccc1
Enquiry: List by increasing pIC50. Sort and list the labels as requested.
Return: III, IV, II, I
(III: 5.90, IV: 6.33, II: 6.60, I: 7.86)
